# Tested on: HepG2
# Test details: cytotoxicity call (relative viability < 0.9)
# Experimental setup: 10 µM
Among all 39,000 compounds or so, about 3,300 (8.5%) were called active. The sample holds actives, similar compounds and a random draw of the others, so the mix is not that of the screen.
Returns: one label drawn from active, inactive

{"Compound structure string": "C[C@H]1CN([C@@H](C)CO)C(=O)c2cc(NC(=O)Nc3cccc4ccccc34)ccc2O[C@H]1CN(C)C(=O)Nc1ccccc1", "Classification": "active"}
{"Compound structure string": "C[C@@H]1CN([C@@H](C)CO)C(=O)c2cc(NC(=O)Nc3cccc4ccccc34)ccc2O[C@H]1CN(C)C(=O)Nc1cccc2ccccc12", "Classification": "inactive"}
{"Compound structure string": "C[C@@H]1CN([C@H](C)CO)C(=O)c2cc(NC(=O)Nc3cccc4ccccc34)ccc2O[C@H]1CN(C)C(=O)Nc1cccc2ccccc12", "Classification": "inactive"}

Now let's try a different one.
// query What call does the record list for `C[C@H](CO)N1C[C@H](C)[C@@H](CN(C)C(=O)Nc2cccc3ccccc23)Oc2ccc(NC(=O)Nc3ccc(C(F)(F)F)cc3)cc2C1=O` ?
// result inactive

* * *

# Test system: HepG2
# Test details: cytotoxicity call (relative viability < 0.9)
# Experimental setup: 10 µM
Screen size: about 39,000 compounds; about 3,300 (8.5%) were called active. The sample as a whole holds a higher share of actives than the screen did.
Returns: one label drawn from active, inactive

{"Compound structure string": "Nc1ncnc2c1c(I)cn2[C@H]1O[C@@H](CO)[C@@H](O)[C@@H]1O", "Classification": "active"}

// query What call does the record list for `C[C@@H]1CN([C@H](C)CO)C(=O)c2cc(NC(=O)Nc3cccc4ccccc34)ccc2O[C@H]1CN(C)Cc1ccncc1` ?
// result inactive

// query What call does the record list for `C[C@@H]1CCCCO[C@@H](CN(C)CC2CCCCC2)[C@@H](C)CN([C@H](C)CO)C(=O)c2cc(NC(=O)Nc3ccc(C(F)(F)F)cc3)ccc2O1` ?
// result active

// query What call does the record list for `Nc1ncnc2c1c(I)cn2[C@@H]1O[C@H](CO)[C@@H](O)[C@H]1O` ?
// result active

// query What call does the record list for `C[C@@H]1CN([C@H](C)CO)C(=O)c2cc(NC(=O)Nc3ccc(C(F)(F)F)cc3)ccc2O[C@@H](C)CCCCO[C@@H]1CN(C)CC1CCCCC1` ?
// result active

// query What call does the record list for `CC(C)CC#Cc1ccc2c(c1)O[C@@H](CN(C)C(=O)c1cccnc1)[C@H](C)CN([C@H](C)CO)S2(=O)=O` ?
// result inactive

// query What call does the record list for `C[C@H](CO)N1C[C@H](C)[C@H](CN(C)CC2CCCCC2)OCCCC[C@H](C)Oc2ccc(NC(=O)Nc3ccc(C(F)(F)F)cc3)cc2C1=O` ?
// result active

// query What call does the record list for `c1cnc2nccn2c1` ?
// result inactive

* * *

# System: HepG2
# Test details: cytotoxicity call (relative viability < 0.9)
# Experimental setup: 10 µM
Out of some 39,000 compounds screened, about 3,300 (8.5%) were called active. This excerpt belongs to a sample that is enriched for actives.
Returns: one label drawn from active, inactive

As a guide, the following entries are already answered.
{"Compound structure string": "C[C@@H]1CCCCO[C@@H](CN(C)S(=O)(=O)c2ccc(Cl)cc2)[C@@H](C)CN([C@@H](C)CO)C(=O)c2cc(NC(=O)c3ccncc3)ccc2O1", "Classification": "inactive"}
{"Compound structure string": "C[C@@H]1CCCCO[C@@H](CN(C)Cc2ccc3c(c2)OCO3)[C@@H](C)CN([C@@H](C)CO)C(=O)c2cc(NC(=O)Nc3ccc(C(F)(F)F)cc3)ccc2O1", "Classification": "active"}

// query What call does the record list for `C[C@H]1CCCCO[C@H](CN(C)S(=O)(=O)c2ccc(Cl)cc2)[C@@H](C)CN([C@@H](C)CO)C(=O)c2cc(NC(=O)c3ccncc3)ccc2O1` ?
// result inactive

// query What call does the record list for `C[C@@H]1CCCCO[C@H](CN(C)Cc2ccc3c(c2)OCO3)[C@@H](C)CN([C@@H](C)CO)C(=O)c2cc(NC(=O)Nc3ccc(C(F)(F)F)cc3)ccc2O1` ?
// result active

// query What call does the record list for `C[C@@H]1CN([C@H](C)CO)C(=O)c2cc(NC(=O)c3ccncc3)ccc2O[C@@H](C)CCCCO[C@H]1CN(C)S(=O)(=O)c1ccc(Cl)cc1` ?
// result active

// query What call does the record list for `C[C@@H]1CN([C@@H](C)CO)C(=O)c2cc(NC(=O)Nc3ccc(C(F)(F)F)cc3)ccc2O[C@@H](C)CCCCO[C@@H]1CN(C)Cc1ccc2c(c1)OCO2` ?
// result inactive

* * *

# System: HepG2
# Test details: cytotoxicity call (relative viability < 0.9)
# Experimental setup: 10 µM
In all, about 39,000 compounds went through this assay and about 3,300 (8.5%) were called active. The entries come from a sample that favours actives as a whole.
Metric: cytotoxicity call

The cases that follow already have their cytotoxicity call on record.
{"Compound": "Cc1ccc(S(=O)(=O)Nc2ccc3c(c2)C(=O)N([C@@H](C)CO)C[C@@H](C)[C@@H](CN(C)Cc2ccc(C(=O)O)cc2)OCCCC[C@@H](C)O3)cc1", "cytotoxicity call": "inactive"}
{"Compound": "O=C1c2ccccc2[C@@]2(Cc3ccccc3N(C3CC3)C2=O)[C@H](c2ccc(CO)cc2)N1Cc1ccccc1", "cytotoxicity call": "active"}
{"Compound": "COc1ccc(C(=O)O)cc1", "cytotoxicity call": "inactive"}
{"Compound": "Cc1ccc(S(=O)(=O)N(C)C[C@@H]2Oc3ccc(NC(=O)Nc4ccc(C(F)(F)F)cc4)cc3C(=O)N([C@H](C)CO)C[C@@H]2C)cc1", "cytotoxicity call": "active"}

// for each compound below, give its cytotoxicity call
1. CCCCC(CC)COC(=O)C=Cc1ccc(OC)cc1 (stereo not drawn)
2. COCC#Cc1ccc2c(c1)O[C@H](CN(C)S(=O)(=O)c1ccc(OC)cc1)[C@@H](C)CN([C@H](C)CO)S2(=O)=O
3. O=C1c2ccccc2[C@@]2(Cc3ccccc3N(C3CC3)C2=O)[C@H](c2ccc(CO)cc2)N1Cc1ccccc1Cl

// result
1. inactive
2. inactive
3. inactive

// for each compound below, give its cytotoxicity call
1. O=C(C=Cc1ccc(O)cc1)c1ccc(O)cc1O
2. Cc1ccc(S(=O)(=O)N(C)C[C@@H]2Oc3ccc(NC(=O)Nc4ccc(C(F)(F)F)cc4)cc3C(=O)N([C@@H](C)CO)C[C@H]2C)cc1
3. COc1ccc(/C=C2/NC(=O)NC2=O)cc1
4. C/C=C/c1ccc(OC)cc1
5. CC(=C/C(=O)O)/C=C/c1ccccc1

// result
["inactive", "active", "inactive", "inactive", "inactive"]

// for each compound below, give its cytotoxicity call
1. COc1ccc(C=CC(=O)c2ccccc2)cc1
2. Cc1ccc(S(=O)(=O)N(C)C[C@@H]2OCCCC[C@H](C)Oc3ccc(NC(=O)c4ccccc4)cc3C(=O)N([C@H](C)CO)C[C@@H]2C)cc1
3. Cc1ccc(S(=O)(=O)N(C)C[C@H]2Oc3ccc(NC(=O)Nc4ccc(C(F)(F)F)cc4)cc3C(=O)N([C@H](C)CO)C[C@H]2C)cc1
4. C[C@@H]1CN([C@H](C)CO)C(=O)Cc2cc(NS(=O)(=O)c3ccc(Cl)cc3)ccc2O[C@H]1CN(C)S(C)(=O)=O
5. CC=Cc1ccc(OC)cc1
6. COc1ccc(S(=O)(=O)N(C)C[C@@H]2Oc3ccc(NC(=O)NC(C)C)cc3C(=O)N([C@H](C)CO)C[C@H]2C)cc1

// result
active
inactive
active
inactive
active
inactive

* * *

# System: HepG2
# Test details: cytotoxicity call (relative viability < 0.9)
# Experimental setup: 10 µM
The campaign covered roughly 39,000 compounds. About 3,300 (8.5%) were called active. Many of the other results were omitted from the sample, so actives are more common in it than they were.
Returns: one label drawn from active, inactive

// query What call does the record list for `CCCCc1oc2ccccc2c1C(=O)c1cc(I)c(OCCN(CC)CC)c(I)c1` ?
// result active

// query What call does the record list for `CCCCOc1cc(C(=O)NCCN(CC)CC)c2ccccc2n1.Cl` ?
// result inactive

// query What call does the record list for `Cc1ccccc1N1CCN(S(=O)(=O)C[C@]23CC[C@H](C[C@@H]2NC(=O)[C@@H](N)CCS(C)(=O)=O)C3(C)C)CC1` ?
// result inactive

* * *

# Test system: HepG2
# Test details: cytotoxicity call (relative viability < 0.9)
# Experimental setup: 10 µM
About 3,300 (8.5%) of roughly 39,000 compounds were called active. The sample as a whole holds a higher share of actives than the screen did.
Returns: one label drawn from 1 for active, 0 for inactive

{"Compound structure string": "C[C@H]1CN([C@@H](C)CO)C(=O)c2cccc(NS(=O)(=O)c3ccccc3)c2O[C@H]1CN(C)Cc1ccc(Cl)c(Cl)c1", "Classification": 0}
{"Compound structure string": "COc1ccc(S(=O)(=O)Nc2cccc3c2O[C@H](CN(C)Cc2ccc(Cl)c(Cl)c2)[C@H](C)CN([C@@H](C)CO)C3=O)cc1", "Classification": 1}
{"Compound structure string": "O=C(C[C@@H]1C=C[C@@H](NC(=O)c2ccncc2)[C@@H](CO)O1)NCc1ccncn1", "Classification": 0}

Now let's try a different one.
// query What call does the record list for `C[C@@H]1CN([C@@H](C)CO)C(=O)c2cccc(NS(=O)(=O)c3ccccc3)c2O[C@@H]1CN(C)Cc1ccc(Cl)c(Cl)c1` ?
// result 0

Where these numbers come from: the antibiotic and cytotoxicity screens of Wong et al. (2023)
